Source listed as paper PMC7238799.

EXPERIMENT DESCRIPTION: Multiple ascending dose
Type: in vivo, human
EXPERIMENTAL PARAMETERS: human, plasma, oral, 70 ug, AUC0–τ,ss, 70 µg BID, steady state, τ 12 h, single subject
EXPERIMENTAL ENDPOINT: AUC (ng·h/mL)
Reply with just the number (in ng·h/mL).

Look up and state reported AUC for O=C(O)COC[C@H]1CC[C@H](COC(=O)N(c2ccccc2)c2ccc(Cl)cc2)CC1
25.2

----------
EXPERIMENT DESCRIPTION: Single ascending dose
Type: in vivo, human
EXPERIMENTAL PARAMETERS: both, human, plasma, po, 100 ug
EXPERIMENTAL ENDPOINT: AUC(0-t) (ng·h/mL)
Give just the number in ng·h/mL; leave the unit off.

Note AUC(0-t) for the compound shown: O=C(O)COC[C@H]1CC[C@H](COC(=O)N(c2ccccc2)c2ccc(Cl)cc2)CC1
41.2

----------
EXPERIMENT DESCRIPTION: Multiple ascending dose
Assay type: in vivo, human
EXPERIMENTAL PARAMETERS: human, plasma, oral, 30 ug, AUC0-τ,ss, 30 µg QD, steady state, τ 24 h, n = 3, mean (SD)
EXPERIMENTAL ENDPOINT: AUC (ng·h/mL)
Kindly answer with a numeric value in ng·h/mL, unit omitted.

Name the recorded AUC of the compound listed here: O=C(O)COC[C@H]1CC[C@H](COC(=O)N(c2ccccc2)c2ccc(Cl)cc2)CC1
24.8

----------
EXPERIMENT DESCRIPTION: Multiple ascending dose
Format: in vivo, human
EXPERIMENTAL PARAMETERS: human, plasma, oral, 40 ug, Cmax,ss, 40 µg BID, steady state, n = 9, mean (SD)
EXPERIMENTAL ENDPOINT: Cmax (ng/mL)
Give a bare numeral; the unit ng/mL is implied.

For the compound O=C(O)COC[C@H]1CC[C@H](COC(=O)N(c2ccccc2)c2ccc(Cl)cc2)CC1 , report Cmax.
3.31

----------
EXPERIMENT DESCRIPTION: Multiple ascending dose
Type: in vivo, human
EXPERIMENTAL PARAMETERS: human, plasma, oral, 300 ug, AUC0-τ,ss, 300 µg QD, steady state, τ 24 h, single subject
EXPERIMENTAL ENDPOINT: AUC (ng·h/mL)
I only need the number, in ng·h/mL, no unit after it.

For O=C(O)COC[C@H]1CC[C@H](COC(=O)N(c2ccccc2)c2ccc(Cl)cc2)CC1 [ralinepag] , write its AUC.
181

----------
EXPERIMENT DESCRIPTION: Single ascending dose
Format: in vivo, human
EXPERIMENTAL PARAMETERS: both, human, plasma, po, 200 ug
EXPERIMENTAL ENDPOINT: Cmax (ng/mL)
Form entry: value (ng/mL) — number only.

Tell us which Cmax value is on record for O=C(O)COC[C@H]1CC[C@H](COC(=O)N(c2ccccc2)c2ccc(Cl)cc2)CC1 [ralinepag]
6.17

----------
EXPERIMENT DESCRIPTION: Single ascending dose
Assay type: in vivo, human
EXPERIMENTAL PARAMETERS: both, human, plasma, po, 30 ug
EXPERIMENTAL ENDPOINT: Cmax (ng/mL)
API: value field is a number in ng/mL; no unit string.

Give a short answer stating reported Cmax for O=C(O)COC[C@H]1CC[C@H](COC(=O)N(c2ccccc2)c2ccc(Cl)cc2)CC1 [ralinepag] .
0.949
